Assay: amyloid nucleation score (Sup35N fusion, yeast selection) (log enrichment); library NNK3; higher = more nucleation; inactive = no reads after selection;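 note: zero at mode of non-aggregating sequences after 7 days selection at 30°C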
Property Measured: amyloid nucleation score

Worked examples, 8 substances total:
Substance: HSSNWCSVVITLCCTLRKDY
Assay Value: 0.748

Substance: QDFYSACSNIVNST
Assay Value: inactive

Substance: SRLEGIAGVKKGVMVNQKRL
Assay Value: inactive

Substance: EIKYTDL
Assay Value: inactive

Substance: AYVRLKRCWDTFWLRI
Assay Value: inactive

Substance: CNVNIHYFGTV
Assay Value: inactive

Substance: GTIRDSGSHYKVISF
Assay Value: inactive

Substance: TLAIGLIDEFRLHA
Assay Value: 1.09

Query "WLVFITPYLSLSCLSLINKI" yields amyloid nucleation score of inactive

---

Assay: amyloid nucleation score (Sup35N fusion, yeast selection) (log enrichment); library NNK3; higher = more nucleation; inactive = no reads after selection
Property Measured: amyloid nucleation score

Worked examples, 5 substances total:
Substance: SIMFVCQFGGGSRNSYGCLA
amyloid nucleation score: 2.24
--
Substance: MAWGLVNMRMSLSAKYQGAL
amyloid nucleation score: inactive
--
Substance: SQITRMTPPVSIAADSRFVE
amyloid nucleation score: inactive
--
Substance: CYFVSVKLLTGVKLSHKYL
amyloid nucleation score: 1.25
--
Substance: VDNSERLSLHPSVHMGDMGF
amyloid nucleation score: inactive

With those in mind, consider the next substance.
Query "FGSVVGRCSTSFVYRLINIR" yields amyloid nucleation score of 0.65

---

Assay: amyloid nucleation score (Sup35N fusion, yeast selection) (log enrichment); library NNK3; higher = more nucleation; inactive = no reads after selection
Property Measured: amyloid nucleation score

Worked examples, 5 substances total:
Substance: TDVISRMMRGGQVLCMCKQC
amyloid nucleation score: inactive

Substance: NRILGGNLYVNVIDRIGGMV
amyloid nucleation score: inactive

Substance: VKEPPTCVTCSAHSIRSGYS
amyloid nucleation score: inactive

Substance: YSALNSYSWYVTPFYILYWF
amyloid nucleation score: 2.56

Substance: DVGLAVNTSHLWSYT
amyloid nucleation score: inactive

Query "VLIITLMYMYATFLSFYKPQ" yields amyloid nucleation score of 2.59

Query "SSMICVQFGM" yields amyloid nucleation score of inactive

Query "GCNDSSARLS" yields amyloid nucleation score of inactive

Query "ADIGPHRCVLGAMMRWCRQT" yields amyloid nucleation score of inactive

Query "DRLALEFVYRR" yields amyloid nucleation score of 0.145

Query "FLMCVNFVCCIIMCCGTIWG" yields amyloid nucleation score of inactive

Query "LFLRDNF" yields amyloid nucleation score of inactive

Query "LYGLLSCSERVVKLWFWSWV" yields amyloid nucleation score of inactive

Query "GNTVEGKLE" yields amyloid nucleation score of inactive

Query "SWQNWGRGGCSGLFVSRWVT" yields amyloid nucleation score of inactive

Query "KYLLLKRNARQRLHTVCHQA" yields amyloid nucleation score of inactive

Query "HVYNLLRVVF" yields amyloid nucleation score of inactive

Query "KERCLVSHCTTLCALFLRVI" yields amyloid nucleation score of inactive

---

Assay: amyloid nucleation score (Sup35N fusion, yeast selection) (log enrichment); library NNK1; higher = more nucleation; inactive = no reads after selection
Property Measured: amyloid nucleation score

Worked examples, 8 substances total:
Substance: SNGRFWYMADSVST
amyloid nucleation score: inactive

Substance: LDIRVCRLPRSVFNR
amyloid nucleation score: -0.002

Substance: IPVILSSSNYSDSKPGL
amyloid nucleation score: 0.964

Substance: KSERERRVLMQRSDECVKSF
amyloid nucleation score: -0.297

Substance: VPNEYGNSEVRLLDLLGDLE
amyloid nucleation score: -0.435

Substance: VDLALLYCDIKMQLV
amyloid nucleation score: 1.14

Substance: RGEILCWWIGFYFVAVK
amyloid nucleation score: 0.149

Substance: SMSFRCLDAKDVPDRASQGY
amyloid nucleation score: -0.385

Query "FVGNPSRRWLCHCKFIAGGH" yields amyloid nucleation score of 0.137

Query "VLGLGSC" yields amyloid nucleation score of -0.15
